test: soluble on expression in E. coli; label from the status in PepcDB or PDB records
recorded-metric: soluble on expression in E. coli

1. AHHHHHHGSRTNAFEAVARYVYPSLRRRLVEILRERGLTQIQIAELLHITQSAVSRYLRMNRGALIEVEKFQDIDEKLKGLADTIVREKPDEYYIHGELVKIAVEMLGKGYVCSFHSKVDPEIDPKLCRICIETFG = not soluble
2. MEFVVEEGKLVNEDCSTLVLPALSIGNVGQLAVDLLVSSTGAERVGYLDDPNLLPCVGNDAYGPLPCGEIALPLEVYESSSIATTLAQQRSPVAKGMMIKFAENIANFAASSGKKHIIVLSSLDFQRLHNLDMSRGPQVYYLSNAESDGRDDHCERLGFGRLHEYDSEGRCWKYLSSVFEKNSVEELALPSEDELEDIDYYPSLPFAALFSAFKARGLKMTCLLCYCSEGDNIPEAFLLAEASSKLMGLTPDKFHGEEGGKWQIPYSWKSMYGAPPDMSMF = soluble
3. MGSDKIHHHHHHMSLPAQLRVLEVVQSLEKGGRTTRFTDTVAGLRAQKIFTVPLCISKPESWVSIPDLEVLHKTAGINWKLVFQIRKKIIKNNINLIHAHCEFSQLYASIAGVTCGIKTVATFHRSDLSKYQPNMVNKLIKLFASHFVAVSHDRLSLLTNNLKLPLNKCHVVHGGSVIEKKPTVTSINKARADLGIPLDQLMLLSIGHLGEIKGHQDTLVALSKFTKTMPALHLYIAGDGAAQEKQKLTELVNKLQINENVTFLGQINNAFSWLEACDIFIQPSVEEAFGLVFVEAGAKAKPVIATTVGGIKEIIVSKETGLLVLPSSPKAVEHALAILINSPPLRQQYGENGYKRITEHFSLTNMVNKYTDIFNQAVN = not soluble
4. GITPRFSITQDEEFIFLKIFISNIRFSAVGLEIIIQENMIIFHLSPYYLRLRFPHELIDDERSTAQYDSKDECINVKVAKLNKNEYFEDLDLPTKLLARQGDLAGADALTENTDAKKTQKPLIQEVETDGVSNN = soluble
5. MKTALLLVDIQNDYFPNGKMELRNPVEASEYANQLLQHFRTNSEPILHIQHVAIKDDATFFLPNTEGVHIHESVRPLREETVIVKHYPNSFRETNLLEQLKRLNIEHVVVCGMMTHMCIDATVRAAFDFGFQCTVIHDACATKDLSFKNATIPAVYIHNTILASLNGVYANVISTQEFLAT = not soluble

Next sequence, please.
Lab note: AVMHYTSDTEFCVSCHSMEIPYKEYQGSVHFSNAKGIRAECSDCHIPQEPMDYLITKIRASKDIYHEFVTGKIDTPEKYEAHRKDMAETVWAQFRENDSATCRSCHDFDAMEEFEQSRDAAKMHEYAKANDQTCIDCHKGVAHFAPEAELDSKAFETLMSFTTKTAANAKVVYPVTTINMGEMGTINPTTKLEVMSAEGDNRTVKLNAFQMKGAEQVLYMGEGQRAIVATLTEQGQQALEAGEFEADVYGNEWRAVSLTGAIDSPVVDTLDPVWSYAEELDNVYCATCHAKIPSNHFTV gave soluble on expression in E. coli of not soluble
